Item-by-item account of pIC50
# TARGET_OF_ASSAY: Human NPY5 Receptor (Homo sapiens)
# Sequence (Q15761 whole entry): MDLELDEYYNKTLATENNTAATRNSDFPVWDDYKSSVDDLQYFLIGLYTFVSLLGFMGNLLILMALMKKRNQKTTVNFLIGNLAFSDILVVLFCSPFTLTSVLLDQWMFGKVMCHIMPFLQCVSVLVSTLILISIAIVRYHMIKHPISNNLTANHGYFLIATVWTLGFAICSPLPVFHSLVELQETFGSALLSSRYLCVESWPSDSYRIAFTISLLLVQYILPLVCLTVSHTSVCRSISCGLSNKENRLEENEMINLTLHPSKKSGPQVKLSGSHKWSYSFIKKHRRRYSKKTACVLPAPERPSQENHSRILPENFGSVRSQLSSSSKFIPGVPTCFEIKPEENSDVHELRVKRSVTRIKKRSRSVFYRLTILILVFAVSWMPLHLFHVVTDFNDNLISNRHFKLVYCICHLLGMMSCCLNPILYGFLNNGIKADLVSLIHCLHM
# PROTOCOL_DETAILS: Human NPY5 Receptor Binding Assay
# CONDITION_DETAILS: [125I]PYY; read-out: hNPY5 IC50
pIC50: −log10 of the molar value.
EXPERIMENTAL_READOUT: pIC50

INSERT INTO measurements (molecule, lt_gt_eq, measured) VALUES
  ('O=C(CSc1nnc(-c2ccccc2)o1)Nc1ccc(C2CCCCC2)cc1 [Compound 94]', '=', 6.17),
  ('Cn1c(CC2Sc3ccccc3NC2=O)nnc1SCC(=O)Nc1ccc(Cl)cc1 (centres unmarked) [Compound 167, reference compound]', '<', 5.00),
  ('COC(Cn1c(SCC(=O)Nc2ccc(Cl)cc2)nnc1-c1ccccc1)OC [Compound 162, reference compound]', '<', 5.00),
  ('O=C(CSc1nc2ccccc2s1)Nc1ccc(C2CCCCC2)cc1 [Compound 37]', '=', 5.77),
  ('O=C(CCC(Sc1ccccc1)C(=O)Nc1ccccc1)Nc1ccccc1 (centres unmarked) [Compound 7]', '=', 5.80),
  ('O=C(CSC1=NCCS1)Nc1ccc(C(=O)c2ccccc2)cc1 [Compound 32]', '=', 5.92),
  ('Cc1ccccc1NC(=O)CCC(Oc1ccccc1)C(=O)Nc1ccccc1C (centres unmarked) [Compound 6]', '=', 6.80),
  ('O=C(CSc1nc2ccccc2s1)Nc1ccc(C(=O)c2ccccc2)cc1 [Compound 47]', '=', 5.42),
  ('Nc1nc(SCC(=O)Nc2ccc(C3CCCCC3)cc2)nc(O)c1N=O [Compound 78]', '<', 6.00),
  ('Nc1nc(O)c2[nH]c(SCC(=O)Nc3ccc(C4CCCCC4)cc3)nc2n1 [Compound 13]', '=', 5.25),
  ('CC(C)c1ccc(NC(=O)CSc2nc3cc(C(F)(F)F)ccc3n2C(C)C)cc1 [Compound 165, reference compound]', '<', 5.00),
  ('Cc1cc(C)n2nc(SCC(=O)Nc3ccc(Cl)cc3)nc2n1 [Compound 137, reference compound]', '<', 5.00),
  ('Nc1nc(SCC(=O)Nc2ccc(C3CCCCC3)cc2)nc2[nH]ncc12 [Compound 59]', '<', 6.00),
  ('CC(C)c1ccc(NC(=O)CSc2nccn2C)cc1 [Compound 155, reference compound]', '<', 5.00),
  ('O=C(CSc1nccc(C(F)(F)F)n1)Nc1ccc(C(=O)c2ccccc2)cc1 [Compound 83]', '=', 6.68),
  ('O=C(CSc1nnnn1-c1ccccc1)Nc1ccc(C(=O)c2ccccc2)cc1 [Compound 62]', '=', 6.52),
  ('CN1CCN=C1SCC(=O)Nc1ccc(F)cc1 [Compound 146, reference compound]', '<', 5.00);

* * *

# TARGET_OF_ASSAY: Human NPY5 Receptor (Homo sapiens)
# PROTOCOL_DETAILS: Human NPY5 Receptor Binding Assay
# CONDITION_DETAILS: [125I]PYY; read-out: hNPY5 IC50
pIC50: −log10 of the molar value.
EXPERIMENTAL_READOUT: pIC50

INSERT INTO assay_data (compound, lt_gt_eq, measured) VALUES
  ('CCC(C)c1ccc(NC(=O)CSc2nccn2C)cc1 (centres unmarked) [Compound 148, reference compound]', '=', 5.40),
  ('CC(Sc1nnnn1C)C(=O)Nc1ccc(C(C)(C)C)cc1 (centres unmarked)', '=', 6.00),
  ('CSc1sc(-c2nnc(SCC(=O)Nc3ccc(C(=O)c4ccccc4)cc3)n2C)c2c1C=CCC2', '=', 6.20),
  ('Cn1nnnc1SCC(=O)Nc1ccc(C(=O)c2ccccc2)cc1', '=', 6.77),
  ('CCCCCCCCCCCc1nnc(SCC(=O)Nc2ccc(Cl)cc2)n1-c1ccccc1C(F)(F)F [Compound 178, reference compound]', '<', 5.00),
  ('Cc1nc(SCC(=O)Nc2ccc(C3CCCCC3)cc2)n[nH]1', '<', 6.00),
  ('Nc1nc(SCC(=O)Nc2ccc(C(=O)c3ccccc3)cc2)nc(O)c1N=O', '<', 5.00),
  ('O=C(CSCC(O)CO)Nc1ccc(C2CCCCC2)cc1 (centres unmarked)', '=', 6.84);

* * *

# TARGET_OF_ASSAY: Rat NPY5 Receptor (Rattus norvegicus)
# Sequence (Q63634 1-445): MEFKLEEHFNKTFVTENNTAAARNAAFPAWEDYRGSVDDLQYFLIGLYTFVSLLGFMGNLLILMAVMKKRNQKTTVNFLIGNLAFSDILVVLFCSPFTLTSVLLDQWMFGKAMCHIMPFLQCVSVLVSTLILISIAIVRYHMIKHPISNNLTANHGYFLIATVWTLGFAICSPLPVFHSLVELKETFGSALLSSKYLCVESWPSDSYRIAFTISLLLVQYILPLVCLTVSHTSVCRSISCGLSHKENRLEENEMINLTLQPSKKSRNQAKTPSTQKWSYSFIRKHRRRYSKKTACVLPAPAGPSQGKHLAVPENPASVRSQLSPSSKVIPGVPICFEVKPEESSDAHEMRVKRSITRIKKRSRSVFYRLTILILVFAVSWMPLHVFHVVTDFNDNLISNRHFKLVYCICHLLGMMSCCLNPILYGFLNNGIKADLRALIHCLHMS
pIC50: −log10 of the molar value.
molecules and their reported pIC50
EXPERIMENTAL_READOUT: pIC50

INSERT INTO measurements (molecule, experimental_readout, lt_gt_eq, measured) VALUES
  ('O=C(CSc1n[nH]c(-c2ccco2)n1)Nc1ccc(C(=O)c2ccccc2)cc1 [Compound 118]', 'pIC50', '<', 6.00),
  ('Cn1nnnc1SCC(=O)Nc1ccc(OC(F)(F)F)cc1 [Compound 144, reference compound]', 'pIC50', '=', 5.85),
  ('O=C(CSc1nnc(NC2CCCCC2)s1)Nc1ccc(C2CCCCC2)cc1 [Compound 116]', 'pIC50', '=', 5.70),
  ('O=C(CSc1nccc(C(F)(F)F)n1)Nc1ccc(C(=O)c2ccccc2)cc1 [Compound 83]', 'pIC50', '=', 6.70),
  ('CN1CCN=C1SCC(=O)Nc1ccc(F)cc1 [Compound 146, reference compound]', 'pIC50', '<', 5.00),
  ('Cn1nnnc1SCC(=O)N1CCCCCC1 [Compound 129]', 'pIC50', '<', 6.00),
  ('O=C(CSCc1cccc(CS)c1)Nc1ccc(C2CCCCC2)cc1 [Compound 96]', 'pIC50', '=', 6.21),
  ('CSc1sc(-c2nnc(SCC(=O)Nc3ccc(C4CCCCC4)cc3)n2C)c2c1C=CCC2 [Compound 112]', 'pIC50', '<', 6.00),
  ('CSc1ncc(-c2nnc(SCC(=O)Nc3ccc(Cl)cc3)n2C)n1C [Compound 142, reference compound]', 'pIC50', '<', 5.00);

* * *

Below, each entry is listed alongside its reported IC50.
# TARGET_OF_ASSAY: Rat NPY5 Receptor (Rattus norvegicus)
# Sequence (Q63634 1-445): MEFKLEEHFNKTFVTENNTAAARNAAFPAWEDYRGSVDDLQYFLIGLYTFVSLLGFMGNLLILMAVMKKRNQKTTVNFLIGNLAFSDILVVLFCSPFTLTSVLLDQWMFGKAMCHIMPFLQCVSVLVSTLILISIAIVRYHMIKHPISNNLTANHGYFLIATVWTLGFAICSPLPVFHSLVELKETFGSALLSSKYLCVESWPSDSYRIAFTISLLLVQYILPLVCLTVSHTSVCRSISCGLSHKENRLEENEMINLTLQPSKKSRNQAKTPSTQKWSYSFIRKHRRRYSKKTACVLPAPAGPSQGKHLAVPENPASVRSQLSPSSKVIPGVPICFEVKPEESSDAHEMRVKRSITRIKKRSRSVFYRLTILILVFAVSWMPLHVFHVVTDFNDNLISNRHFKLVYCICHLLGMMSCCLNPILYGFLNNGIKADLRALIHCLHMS
Where a name gives a salt, the structure may show the parent alone.
EXPERIMENTAL_READOUT: IC50 (nM)

INSERT INTO measurements (molecule, display_unit, lt_gt_eq, measured) VALUES
  ('Cn1ccnc1SCC(=O)Nc1ccc(C(C)(C)C)cc1 [Compound 143, reference compound]', 'nM', '=', 3900),
  ('CN1CCC(OCC(=O)Nc2ccc(C3CCCCC3)cc2)CC1', 'nM', '>', 1000),
  ('Cn1c(CN2C(=O)CSc3ccc(C(F)(F)F)cc32)nnc1SCC(=O)Nc1ccccc1 [Compound 152, reference compound]', 'nM', '>', 10000),
  ('Nc1cc(N)nc(SCC(=O)Nc2ccc(C(=O)c3ccccc3)cc2)n1', 'nM', '>', 1000),
  ('COc1ccc(-c2nnc(SCC(=O)Nc3ccc(C(=O)c4ccccc4)cc3)n2-c2cccc(C(F)(F)F)c2)cc1', 'nM', '=', 530),
  ('CCOc1ccc(NC(=O)CSc2nccn2C)cc1 [Compound 156, reference compound]', 'nM', '>', 10000),
  ('O=C(CSCc1ccco1)Nc1ccc(C(=O)c2ccccc2)cc1', 'nM', '=', 340),
  ('Cn1ccnc1SCC(=O)Nc1ccc(C2CCCCC2)cc1 [Compound 3, Hydrochloride]', 'nM', '=', 120),
  ('CSc1sc(-c2nnc(SCC(=O)Nc3ccc(Cl)cc3)n2C)c2c1C=CCC2 [Compound 159, reference compound]', 'nM', '>', 10000),
  ('O=C(COc1ccccc1)Nc1ccc(C2CCCCC2)cc1', 'nM', '>', 1000),
  ('Cn1ccnc1SCC(=O)Nc1ccc(Cl)cc1 [Compound 139, reference compound]', 'nM', '>', 10000),
  ('CC(C)c1ccc(NC(=O)CSc2nnc(Cc3ccsc3)n2C)cc1 [Compound 158, reference compound]', 'nM', '>', 10000),
  ('Cc1cc(C)n2nc(SCC(=O)Nc3ccc(Cl)cc3)nc2n1 [Compound 137, reference compound]', 'nM', '>', 10000),
  ('Cc1ccc(SCC(=O)Nc2ccc(C3CCCCC3)cc2)cc1 [Compound 183, reference compound]', 'nM', '=', 1200),
  ('CCC(C)c1ccc(NC(=O)CSc2nncn2C)cc1 (centres unmarked) [Compound 172, reference compound]', 'nM', '=', 2000),
  ('Cn1c(CO)cnc1SCC(=O)Nc1ccc(C(=O)c2ccccc2)cc1', 'nM', '=', 2800),
  ('O=C(CSC1=NCCN1)Nc1ccc(Cl)cc1 [Compound 187, reference compound]', 'nM', '>', 10000),
  ('CC(C)c1ccc(NC(=O)CSc2n[nH]c(=O)n2-c2cccc(F)c2)cc1 [Compound 141, reference compound]', 'nM', '=', 3000),
  ('Cn1c(Cc2ccsc2)nnc1SCC(=O)Nc1ccc(Cl)cc1 [Compound 168, reference compound]', 'nM', '>', 10000),
  ('O=C(COc1ccccc1)Nc1ccc(C(=O)c2ccccc2)cc1 [Compound 134, N-(4-Benzoyl-phenyl)-2-phenoxy-acetamide]', 'nM', '>', 1000);

# credit: patent US6245817A
